Reference for the values: patent US20260242478A1

Anti-CD28 Fab (SEQ ID NOs: 696, 697) signal: recorded values
biological target: Anti-CD28 Fab (SEQ ID NOs: 696, 697) (biotinylated (site not given)); experiment: phage binding ELISA; biotinylated anti-CD28 Fab on neutravidin plate, clonal phage detected with anti-M13-HRP;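 also: crude clonal phage supernatants added briefly to wells preincubated in blocking buffer with or without CD28 antigen, then washed before detection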
Sequence (VH, as listed by the source, chain 1 of 2): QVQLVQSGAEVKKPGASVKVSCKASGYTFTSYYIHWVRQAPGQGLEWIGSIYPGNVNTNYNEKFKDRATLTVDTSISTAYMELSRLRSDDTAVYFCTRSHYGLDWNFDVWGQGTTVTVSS
Sequence (VL, as listed by the source, chain 2 of 2): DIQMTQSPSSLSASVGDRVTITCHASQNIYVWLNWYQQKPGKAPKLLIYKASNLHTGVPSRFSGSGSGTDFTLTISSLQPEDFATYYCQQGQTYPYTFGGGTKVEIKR
# print the numeric value only

Past entries and their recorded results:
SCSAGAMYTWPTCL [Phage-1397] :: 2.09
TCAAGAHYLWPWCM [Phage-1402] :: 2.05

We next turn to a different binder, shown below.
# input Form field: reported Anti-CD28 Fab (SEQ ID NOs: 696, 697) signal of TCSEGATYTWPWCF [Phage-1401]
# output 2.05
